MEASUREMENT TARGET: T1, integrin α4β1 (human, UniProt P13612 34-1032; P05556 21-798)
T1 construct: whole, on cells; also called VLA-4; very late antigen-4
T1 sequence (P13612 34-1032, chain 1 of 2): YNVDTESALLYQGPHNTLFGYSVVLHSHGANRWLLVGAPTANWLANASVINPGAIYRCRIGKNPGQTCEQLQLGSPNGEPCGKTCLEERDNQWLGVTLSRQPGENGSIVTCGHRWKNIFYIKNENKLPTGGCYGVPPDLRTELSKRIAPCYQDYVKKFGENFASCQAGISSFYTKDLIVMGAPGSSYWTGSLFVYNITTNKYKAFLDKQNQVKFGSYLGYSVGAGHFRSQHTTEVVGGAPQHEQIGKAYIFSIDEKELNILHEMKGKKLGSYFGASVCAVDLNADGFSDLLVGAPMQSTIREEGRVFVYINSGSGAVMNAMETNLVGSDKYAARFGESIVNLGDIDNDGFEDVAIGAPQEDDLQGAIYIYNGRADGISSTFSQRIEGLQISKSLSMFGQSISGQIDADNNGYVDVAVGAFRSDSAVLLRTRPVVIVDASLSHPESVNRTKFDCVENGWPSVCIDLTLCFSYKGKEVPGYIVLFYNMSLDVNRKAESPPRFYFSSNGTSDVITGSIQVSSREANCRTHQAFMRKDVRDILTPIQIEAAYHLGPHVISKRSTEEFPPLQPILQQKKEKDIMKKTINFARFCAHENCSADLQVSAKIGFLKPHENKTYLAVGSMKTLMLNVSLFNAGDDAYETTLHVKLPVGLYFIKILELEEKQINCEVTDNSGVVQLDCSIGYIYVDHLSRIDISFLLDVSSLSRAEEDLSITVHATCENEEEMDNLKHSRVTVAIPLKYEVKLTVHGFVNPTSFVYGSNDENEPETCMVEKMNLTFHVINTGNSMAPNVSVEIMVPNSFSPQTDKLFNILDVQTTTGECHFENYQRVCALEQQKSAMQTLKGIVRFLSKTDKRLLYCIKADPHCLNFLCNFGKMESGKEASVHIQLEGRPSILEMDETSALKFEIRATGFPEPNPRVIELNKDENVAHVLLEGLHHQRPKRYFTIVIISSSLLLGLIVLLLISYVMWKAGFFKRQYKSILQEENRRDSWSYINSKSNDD
T1 sequence (P05556 21-798, chain 2 of 2): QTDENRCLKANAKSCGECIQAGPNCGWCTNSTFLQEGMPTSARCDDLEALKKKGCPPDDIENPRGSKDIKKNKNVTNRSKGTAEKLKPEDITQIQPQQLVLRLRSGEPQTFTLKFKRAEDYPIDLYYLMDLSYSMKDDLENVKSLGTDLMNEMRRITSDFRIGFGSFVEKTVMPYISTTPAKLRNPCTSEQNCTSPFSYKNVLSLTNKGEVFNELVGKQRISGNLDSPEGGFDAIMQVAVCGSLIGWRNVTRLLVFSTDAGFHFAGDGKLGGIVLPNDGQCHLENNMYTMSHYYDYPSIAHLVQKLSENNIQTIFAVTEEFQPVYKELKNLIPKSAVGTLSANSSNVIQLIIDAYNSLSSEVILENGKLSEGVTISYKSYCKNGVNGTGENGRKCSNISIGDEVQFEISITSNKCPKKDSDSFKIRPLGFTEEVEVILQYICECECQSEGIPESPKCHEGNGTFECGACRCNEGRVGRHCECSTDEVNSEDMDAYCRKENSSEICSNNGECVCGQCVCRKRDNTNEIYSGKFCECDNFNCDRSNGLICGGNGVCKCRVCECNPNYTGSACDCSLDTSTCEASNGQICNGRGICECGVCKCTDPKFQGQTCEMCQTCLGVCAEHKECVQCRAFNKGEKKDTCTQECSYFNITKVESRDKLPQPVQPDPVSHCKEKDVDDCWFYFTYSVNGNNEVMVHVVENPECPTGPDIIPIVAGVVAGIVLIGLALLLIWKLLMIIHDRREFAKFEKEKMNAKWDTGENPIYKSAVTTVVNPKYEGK
PROTOCOL DESCRIPTION: inhibition of HL-60 cell (α4β1) binding to VCAM-IgG coated beads, fluorimetry
Protocol: The media was collected and active protein was purified by immunoprecipitation using Dynal magnetic polystyrene beads coated with goat anti-mouse IgG. […] HL-60 cells were fluorescently labeled with Calcein AM C-3099 (Molecular Probes) and resuspended in 1 ml of binding buffer (Hank's balanced salt solution, pH 7.4, 1.0 mM CaCl_2, 1.0 mM MgCl_2). […] Dose response curves were calculated and IC$50$ values determined. […]
Bridges are numbered along the chain shown (N, C = ends). Where no end group is shown, it is not given here. MPEG5000 = polyethyleneglycol of 5000 molecular weight, attached to the N-terminal Cys
peptide concentration that significantly inhibits binding reference

CFLDVC-OH (disulfide 1-6; N-terminus assumed; SMILES CC(C)C[C@@H]1NC(=O)[C@H](Cc2ccccc2)NC(=O)[C@@H](N)CSSC[C@@H](C(=O)O)NC(=O)[C@H](C(C)C)NC(=O)[C@H](CC(=O)O)NC1=O, Disulfide cyclic peptide; also called Cys-Phe-Leu-Asp-Val-Cys-acid) [SEQ ID NO 21] = < 10 µM
CEWLDYC-OH (disulfide 1-7; N-terminus assumed; SMILES CC(C)C[C@@H]1NC(=O)[C@H](Cc2c[nH]c3ccccc23)NC(=O)[C@H](CCC(=O)O)NC(=O)[C@@H](N)CSSC[C@@H](C(=O)O)NC(=O)[C@H](Cc2ccc(O)cc2)NC(=O)[C@H](CC(=O)O)NC1=O, Disulfide cyclic peptide; also called Cys-Glu-Trp-Leu-Asp-Tyr-Cys-acid) [SEQ ID NO 36] = < 10 µM

// switching to the query binder
Briefly, peptide concentration that significantly inhibits binding measured for MPEG5000-CWLDVC-OH (disulfide 1-6, Disulfide cyclic peptide; also called MPEG5000-Cys-Trp-Leu-Asp-Val-Cys-acid) [SEQ ID NO 41] : < 10 µM
